- method.summary: in vivo
- settings: rabbit
Structures can show the parent of a compound that is named as a salt.
recorded.endpoint: half-life

## Input Supply recorded half-life for CC(C)(C)NC[C@H](O)COc1nsnc1N1CCOCC1 [Timolol Maleate] here.
## Output ~1.43 h
